This collection of values is drawn from ChEMBL document CHEMBL1201862.

Listed molecules paired with reported GI50
- System: OVCAR-3
- protocol: NCI tumour cell line growth inhibition, 48 h
The source made the active and inactive calls. No stated cut-off is given here; in the data, active = GI50 up to about 1.1 µM and inactive = higher.

Answered cases to consult:
* Cc1cn(C2CC(N=[N+]=[N-])C(CO)O2)c(=O)n(CCCCO)c1=O (centres undefined) | > 100 µM (inactive)
* O=C1Nc2ccccc2/C1=N/Nc1nc(-c2ccc(Br)cc2)cs1 | 20.7 µM (inactive)

Specify reported GI50 for the molecule shown: Cc1ncc(COP(=O)(O)O)c(/C=C2\SC(=S)NC2=O)c1O
> 100 µM (inactive)

Specify reported GI50 for the molecule shown: CSc1ccsc1-c1sc(-c2cc(SC)c(-c3sc(-c4cc(SC)c(-c5sccc5SC)s4)cc3SC)s2)cc1SC
49.8 µM (inactive)

Specify reported GI50 for the molecule shown: CCOC(=O)c1cc(/C=C/C(C)=C/C(=O)OC)oc1-c1ccccc1
73.5 µM (inactive)

Specify reported GI50 for the molecule shown: CC[n+]1cnc(N)c2c(-c3ccc(Cl)cc3)cn(-c3ccc(C)cc3)c21
9.38 µM (inactive)

Specify reported GI50 for the molecule shown: Cc1ccc(S(=O)(=O)N/N=C2\CC3C4CCC3C2C4)cc1 (centres undefined)
> 100 µM (inactive)

Specify reported GI50 for the molecule shown: COc1cc(/C=C\c2ccccc2)cc(OC)c1OC
2.29 µM (inactive)

Specify reported GI50 for the molecule shown: CCNC(=O)OCc1c(COC(=O)NCC)c(-c2ccc(Cl)c(Cl)c2)n2c1CCC2
17.6 µM (inactive)

Specify reported GI50 for the molecule shown: CNc1ccc(OC)cc1S(=O)(=O)c1ccccc1[N+](=O)[O-]
> 100 µM (inactive)

Specify reported GI50 for the molecule shown: NC(=O)c1ncn2c1CNC(=O)C2
> 100 µM (inactive)

Specify reported GI50 for the molecule shown: Cn1nc2ccccc2cc1=O
> 100 µM (inactive)

Specify reported GI50 for the molecule shown: CC1(C)C(=O)OC(n2cc(F)c(=O)[nH]c2=O)C1=O (centres undefined)
> 100 µM (inactive)

Specify reported GI50 for the molecule shown: COc1ccc(-c2nc(N3CCCC3)no2)cc1
72.8 µM (inactive)

----------
- System: XF498
- protocol: NCI tumour cell line growth inhibition, 48 h
Active and inactive are the calls of the source. Cut-off read from the data, not from the text of the source: active = GI50 up to about 1.1 µM and inactive = higher.
Bench note: report the call from active, inactive

Sample answers from the record:
- N#C/C(=C1\SC(/N=N/c2ccc(Cl)cc2)C(=O)N1c1ccccc1)c1nc2ccccc2[nH]1 (stereo not given): inactive
- COc1ccc(/C=C/C(=O)C(C)(C)C)cc1OC: inactive
- COc1ccc(/C=C2\CCC(CN(C)C)C2=O)cc1OC (stereo not given): inactive
- N#CCC(=O)N/N=C(\CCN1CCCC1)CC(c1ccccc1)c1c(O)c2ccccc2oc1=O (stereo not given): inactive
- CN1S(=O)(=O)N(C)P12(N=P(CP(=NP13(N(C)S(=O)(=O)N1C)N(C)S(=O)(=O)N3C)(c1ccccc1)c1ccccc1)(c1ccccc1)c1ccccc1)N(C)S(=O)(=O)N2C: inactive

Dear all, I need the recorded test outcome for NC(=O)COc1ccccc1 , thank you.
inactive

Dear all, I need the recorded test outcome for O=c1[nH]nc2c3n[nH]c(=O)n3c3ccccc3n12 , thank you.
inactive

Dear all, I need the recorded test outcome for COc1cc([C@@H]2c3cc4c(cc3C[C@H]3COC(=O)[C@@H]32)OCO4)cc(OC)c1OC [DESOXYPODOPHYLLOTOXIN] , thank you.
active

Dear all, I need the recorded test outcome for COc1ccc(/C(=N/NC(N)=O)C(c2ccc(OC)cc2)C2C(=O)Oc3ccccc32)cc1 (stereo not given) , thank you.
inactive

Dear all, I need the recorded test outcome for NC1=NC(c2ccccc2)CC(c2cc(Cl)ccc2O)=N1 (stereo not given) , thank you.
inactive
